- study.target: HPK1 (Homo sapiens (Human), UniProt Q92918)
- Sequence (Q92918 1-346 limits assumed): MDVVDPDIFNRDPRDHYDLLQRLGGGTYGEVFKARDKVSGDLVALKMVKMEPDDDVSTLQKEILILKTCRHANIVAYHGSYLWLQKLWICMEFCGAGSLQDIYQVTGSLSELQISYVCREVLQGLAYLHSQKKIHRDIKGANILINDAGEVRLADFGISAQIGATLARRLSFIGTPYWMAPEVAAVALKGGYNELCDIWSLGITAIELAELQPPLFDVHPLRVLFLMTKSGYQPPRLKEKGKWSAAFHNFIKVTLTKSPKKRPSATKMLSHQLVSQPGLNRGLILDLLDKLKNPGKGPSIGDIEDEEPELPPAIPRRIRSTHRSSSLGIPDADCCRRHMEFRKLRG
pKi: −log10 of the molar value.
Label 1 for high-side pKi (at or above 7) and -1 for low-side pKi (below it).

Answered cases to consult:
Q) Determine whether measured pKi meets or exceeds 7 for CN(C)C(=O)c1nc(-c2cnc3c(c2Cl)[C@]2(CC[C@](C)(C#N)C2)CN3)ccc1N [Compound 288]
A) 1

Q) Determine whether measured pKi meets or exceeds 7 for CN(C)C(=O)c1c(N)ccc(-c2cnc3c(c2Cl)[C@]2(CC[C@H](N4CCCC4)C2)CN3)c1F (relative stereo) [Compound 121a]
A) -1

Q) Determine whether measured pKi meets or exceeds 7 for CN(C)C(=O)c1c(N)ccc(-c2cnc3c(c2Cl)C2(CCC(=CS(C)(=O)=O)C2)CN3)c1F (stereo not shown) [Compound 103]
A) 1

Q) Determine whether measured pKi meets or exceeds 7 for NC(=O)[C@H]1CC[C@@]2(CNc3ncc(-c4c[nH]c5c(N6CCNCC6=O)cccc45)c(Cl)c32)C1 (relative stereo) [Compound 305a]
A) 1

Q) Determine whether measured pKi meets or exceeds 7 for O=C1CCCCN1c1cccc2c(-c3cnc4c(c3Cl)C3(CCC(O)C3)CN4)c[nH]c12 (stereo not shown) [Compound 300]
A) 1

Others:
Q) Determine whether measured pKi meets or exceeds 7 for CN(C)C(=O)c1c(N)ccc(-c2cnc3c(c2Cl)[C@]2(CC[C@H](C(=O)NCCO)C2)CN3)c1F (relative stereo) [Compound 106a]
A) 1

Q) Determine whether measured pKi meets or exceeds 7 for CCC[C@@H]1C[C@]12CNc1ncc(-c3ccc(N)c(C(=O)N(C)C)c3F)c(Cl)c12 (single isomer, unassigned) [Compound 197b]
A) 1

Q) Determine whether measured pKi meets or exceeds 7 for CN(C)C(=O)c1c(N)ccc(-c2cnc3c(c2)[C@]2(CN3)C[C@@](C)(O)C2)c1F [Compound 78b]
A) -1

====

- study.target: HPK1 (Homo sapiens (Human), UniProt Q92918)
Where a name gives a salt, the structure may show the parent alone.
So basically: is Ki under 80 nM? Then Criterion met. Not under? Then Criterion not met.

Answered cases to consult:
Q) Determine if Cc1nc(N)n([C@H]2CC[C@@]3(CNc4ncc(-c5ccc(N)c(C(=O)N(C)C)c5F)c(Cl)c43)C2)n1 (relative stereo) [Compound 158a] shows Ki strictly lower than 80 nM.
A) Criterion not met

Q) Determine if C[C@]1(C(N)=O)CC[C@@]2(CNc3ncc(-c4c[nH]c5ccc(C#N)cc45)c(Cl)c32)C1 (relative stereo) [Compound 337a] shows Ki strictly lower than 80 nM.
A) Criterion met

Q) Determine if Cc1n[nH]cc1-c1ccc2[nH]cc(-c3cnc4c(c3)C3(CC3)CN4)c2c1 [Compound 326] shows Ki strictly lower than 80 nM.
A) Criterion met

Q) Determine if O=C1Nc2ccc(-c3cnc4c(c3Cl)C3(CC3)CN4)cc2C1(O)C1CC1 (centres unmarked) [Compound 280] shows Ki strictly lower than 80 nM.
A) Criterion not met

Q) Determine if CN(C)C(=O)c1c(N)ccc(-c2cnc3c(c2Cl)[C@]2(CC[C@@H](n4cncn4)C2)CN3)c1F [Compound 85c] shows Ki strictly lower than 80 nM.
A) Criterion not met

Q) Determine if CN(C)C(=O)c1c(N)ccc(-c2cnc3c(c2Cl)[C@]2(CC[C@H](n4nccn4)C2)CN3)c1F (relative stereo) [Compound 89a] shows Ki strictly lower than 80 nM.
A) Criterion met

Q) Determine if CN(C)C(=O)c1c(N)ccc(-c2cnc3c(c2Cl)[C@]2(CC[C@H](n4ccc(C(F)(F)F)n4)C2)CN3)c1F (single isomer, unassigned) [Compound 168a] shows Ki strictly lower than 80 nM.
A) Criterion met

We next turn to a different compound, shown below.
Q) Determine if c1nnc(-c2ccc3[nH]cc(-c4cnc5c(c4)C4(CC4)CN5)c3c2)o1 [Compound 334, Formate Salt] shows Ki strictly lower than 80 nM.
A) Criterion met
